- subject-of-test: Cannabinoid receptor 2 (Rattus norvegicus, UniProt Q9QZN9)
- Sequence (Q9QZN9 whole entry): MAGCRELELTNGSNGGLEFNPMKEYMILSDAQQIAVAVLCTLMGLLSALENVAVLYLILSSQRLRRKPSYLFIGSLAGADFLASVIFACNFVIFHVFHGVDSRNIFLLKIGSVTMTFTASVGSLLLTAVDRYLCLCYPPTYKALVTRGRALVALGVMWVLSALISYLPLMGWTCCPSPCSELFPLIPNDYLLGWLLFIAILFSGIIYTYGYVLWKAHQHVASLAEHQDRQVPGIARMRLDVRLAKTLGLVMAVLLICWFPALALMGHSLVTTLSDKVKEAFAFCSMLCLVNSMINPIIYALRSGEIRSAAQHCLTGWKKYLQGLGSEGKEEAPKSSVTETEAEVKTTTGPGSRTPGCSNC
- protocol-notes: Displacement of [3H]-CP55940 from CB2 receptor of rat spleen membranes by liquid scintillation counting in presence of serine protease inhibitor PMSF
- Assay type: tissue-based, Membrane
Consider the following molecules; for each one, report its Ki.

Please state Ki for every molecule in the list that follows.
1. CCCCC/C=C\C/C=C\C/C=C\C/C=C\CCCC(=O)NCCCl
2. CCCCC/C=C\C/C=C\C/C=C\C/C=C\CCCC(=O)NC1CC1

Result:
["> 2000 nM", "715 nM"]

###

- subject-of-test: Cannabinoid receptor 2 (Homo sapiens)
- Sequence (P34972 whole entry): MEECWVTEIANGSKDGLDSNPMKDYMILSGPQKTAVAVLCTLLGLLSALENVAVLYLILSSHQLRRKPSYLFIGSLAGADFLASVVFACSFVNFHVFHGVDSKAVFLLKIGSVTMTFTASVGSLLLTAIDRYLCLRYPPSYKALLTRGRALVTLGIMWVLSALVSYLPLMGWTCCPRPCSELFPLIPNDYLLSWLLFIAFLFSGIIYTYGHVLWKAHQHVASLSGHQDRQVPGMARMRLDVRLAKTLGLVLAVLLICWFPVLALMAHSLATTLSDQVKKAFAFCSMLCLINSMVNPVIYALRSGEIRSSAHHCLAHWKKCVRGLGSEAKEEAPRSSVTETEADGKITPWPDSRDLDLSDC
- protocol-notes: Agonist activity at human CB2 receptor expressed in Sf9 membranes assessed as effect on [35S]-GTPgammaS binding after 30 mins by scintillation counting
- Type: functional, cell membranes
pEC50: −log10 of the molar value.
measured-parameter: pEC50

molecule: Cc1c(C(=O)c2cccc(Cl)c2Cl)c2ccsc2n1CCN1CCOCC1
result: > 7.00

Go through the items and report each one's pEC50.
1. CCCn1c(C)c(C(=O)c2cc3ccsc3n2CCC)c2ccccc21
2. Cc1nc(N2CCN(C)CC2)c2nc(-c3ccccc3Cl)n(C(C)CO)c2n1 (centres undefined)
3. COc1ccc(C(=O)c2cc3cc(C)n(CCN4CCOCC4)c3s2)cc1

Result:
["> 7.00", 7.65, "> 7.00"]

###

- subject-of-test: Cannabinoid receptor 1 (Rattus norvegicus, UniProt P20272)
- Sequence (P20272 whole entry): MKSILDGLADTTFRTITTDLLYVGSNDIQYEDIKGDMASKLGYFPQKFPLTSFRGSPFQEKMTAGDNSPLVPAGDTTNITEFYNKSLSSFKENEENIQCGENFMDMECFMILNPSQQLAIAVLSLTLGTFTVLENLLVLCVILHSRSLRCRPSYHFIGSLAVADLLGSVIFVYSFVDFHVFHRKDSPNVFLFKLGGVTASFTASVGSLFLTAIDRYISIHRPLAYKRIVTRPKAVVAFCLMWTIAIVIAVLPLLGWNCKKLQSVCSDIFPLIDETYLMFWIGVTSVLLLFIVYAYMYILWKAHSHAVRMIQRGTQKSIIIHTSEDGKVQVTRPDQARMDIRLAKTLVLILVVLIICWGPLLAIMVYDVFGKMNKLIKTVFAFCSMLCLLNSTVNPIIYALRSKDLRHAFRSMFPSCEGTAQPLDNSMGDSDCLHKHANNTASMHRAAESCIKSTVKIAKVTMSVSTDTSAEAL
- protocol-notes: Binding affinity to rat CB1 receptor
measured-parameter: pKi
Answers are plain numbers, as −log10 of the molar value.

Problem: Give measured pKi for "CCCCCCC(C)(C)c1cc(O)c2c(c1)OC(C)(C)[C@@H]1CC=C(OO)C[C@@H]21" (Cannabinoid receptor 1 (Rattus norvegicus, UniProt P20272)).
Result: 8.92

###

- subject-of-test: Cannabinoid receptor 2 (Homo sapiens)
- protocol-notes: Binding affinity to human CB2 receptor
Consider the following molecules; for each one, report its Ki.
A bare number is not enough; add the unit after it.

molecule: CCCCC/C=C\C/C=C\C/C=C\C/C=C\CCCCOC(CO)CO
measured-parameter: Ki
result: 3000 nM
--
molecule: CCCCCc1ccc2c(c1)OC(C)(C)[C@@H]1CC=C(C)C[C@@H]21
measured-parameter: Ki
result: 32 nM
--
molecule: CCCCCCC(C)(C)c1cc(O)c2c(c1)OC(C)(C)[C@@H]1CC=C(C(=O)O)C[C@@H]21
measured-parameter: Ki
result: 170 nM
--
molecule: CCCCCCC(C)(C)c1cc(O)c([C@H]2CC(=O)[C@H]3C[C@@H]2C3(C)C)c(OC(=O)/C=C/C(=O)O)c1
measured-parameter: Ki
result: 9 nM

Turning to the following molecule.
Problem: For Cannabinoid receptor 2 (Homo sapiens), give the measured Ki of the entry "CCCCCCC(C)(C)c1cc(O)c2c(c1)OC(C)(C)[C@@H]1CC=C(OO)C[C@@H]21"
Result: 0.032 nM

###

- subject-of-test: UniProt:P21554
- Sequence (P21554 whole entry): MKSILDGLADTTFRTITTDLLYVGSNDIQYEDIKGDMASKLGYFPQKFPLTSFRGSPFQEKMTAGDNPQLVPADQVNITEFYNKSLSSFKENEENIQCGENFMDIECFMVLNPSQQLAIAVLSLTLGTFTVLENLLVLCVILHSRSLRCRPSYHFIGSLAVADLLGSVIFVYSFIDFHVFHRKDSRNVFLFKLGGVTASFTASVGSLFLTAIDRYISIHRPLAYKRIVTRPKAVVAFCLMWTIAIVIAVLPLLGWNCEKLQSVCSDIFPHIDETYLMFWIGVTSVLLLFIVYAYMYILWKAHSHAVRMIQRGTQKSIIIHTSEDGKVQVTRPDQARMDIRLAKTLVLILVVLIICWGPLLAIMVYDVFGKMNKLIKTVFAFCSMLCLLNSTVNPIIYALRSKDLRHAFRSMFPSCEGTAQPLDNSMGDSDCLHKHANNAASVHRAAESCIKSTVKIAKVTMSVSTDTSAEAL
- protocol-notes: Agonist activity at CB1 receptor (unknown origin) assessed as cAMP production
- Type: functional
measured-parameter: pEC50
Give bare numbers, as −log10 of the molar value.

Problem: Kindly indicate its recorded pEC50. Item: "CCCCCCC(C)(C)c1cc(O)c2c(c1)OC(C)(C)[C@@H]1CC=C(C(=O)O)C[C@@H]21"
Result: 6.03
